- System: Acid phosphatase
- test.method.notes: Lysosomal free acid phosphatase activity, PMNs
- Assay type: cell-based
- setup.conditions: 5 μmoles, in vitro; 60 min
reported.property: PMNs % Free Acid Phosphatase Activity, pH5 (% Control)
Record the value in % Control, omitting the unit from your answer.

input: Using known records, supply PMNs % Free Acid Phosphatase Activity, pH5 for C[N+](C)([BH2-]C#N)CC[N+](C)(C)[BH2-]C#N [XI]
output: 84

input: Using known records, supply PMNs % Free Acid Phosphatase Activity, pH5 for C[N+](C)([BH2-]C(=O)O)CC[N+](C)(C)[BH2-]C(=O)O [XII]
output: 84

input: Using known records, supply PMNs % Free Acid Phosphatase Activity, pH5 for C[N+](C)(C)[BH2-]I [IX, (CH3)3 N.BH 2 I]
output: 71

input: Using known records, supply PMNs % Free Acid Phosphatase Activity, pH5 for N#C[BH2-][NH3+] [XVII, ammonia-cyanoborane]
output: 100

* * *

- assay.target: prostaglandin synthetase from beef seminal vesicle (Bos taurus)
- Construct: purchased; host or cells: beef seminal vesicle
- Sequence (O62664 25-600): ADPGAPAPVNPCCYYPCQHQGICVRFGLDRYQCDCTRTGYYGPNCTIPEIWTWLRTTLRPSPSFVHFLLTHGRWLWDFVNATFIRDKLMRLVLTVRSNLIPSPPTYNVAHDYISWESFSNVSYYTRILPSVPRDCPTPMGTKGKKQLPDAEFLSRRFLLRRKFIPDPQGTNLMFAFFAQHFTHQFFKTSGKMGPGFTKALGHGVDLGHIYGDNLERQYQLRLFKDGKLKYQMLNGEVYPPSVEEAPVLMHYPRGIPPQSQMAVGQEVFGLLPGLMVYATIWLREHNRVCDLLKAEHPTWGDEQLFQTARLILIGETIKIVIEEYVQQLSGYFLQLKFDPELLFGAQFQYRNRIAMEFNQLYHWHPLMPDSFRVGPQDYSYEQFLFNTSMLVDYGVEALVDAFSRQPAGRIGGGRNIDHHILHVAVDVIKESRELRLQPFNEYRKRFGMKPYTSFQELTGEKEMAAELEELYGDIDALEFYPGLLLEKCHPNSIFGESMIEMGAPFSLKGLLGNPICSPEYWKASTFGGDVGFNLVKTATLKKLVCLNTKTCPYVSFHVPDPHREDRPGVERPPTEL
- test.method.notes: Prostaglandin synthetase activity
- Assay type: biochemical
- setup.conditions: 1 h; 10^-6 M; read-out: Prostaglandin Synthesis
Label Criterion not met if activity at 1 µM falls below 70%; label Criterion met in every other case.

input: Check if activity at 1 µM >= 70% (inclusive). Item: CCNC(=O)[BH2-][N+](C)(C)C [VII, (CH3)3 N.BH2 CON(H)CH2 CH3]
output: Criterion met

input: Check if activity at 1 µM >= 70% (inclusive). Item: [BH3-][NH+]1CCOCC1 [Compound II, O(CH2 CH2)2 NH.BH3]
output: Criterion met

input: Check if activity at 1 µM >= 70% (inclusive). Item: [BH3-][N+](C)(C)C [Compound III, (CH3)3 N.BH3]
output: Criterion not met

input: Check if activity at 1 µM >= 70% (inclusive). Item: C[N+](C)(C)[BH2-]I [IX, (CH3)3 N.BH 2 I]
output: Criterion not met

input: Check if activity at 1 µM >= 70% (inclusive). Item: CCNC(=O)[BH2-][N+](C)(C)CC[N+](C)(C)[BH2-]C(=O)NCC [XIII]
output: Criterion met

input: Check if activity at 1 µM >= 70% (inclusive). Item: N#C[BH2-][NH3+] [XVII, ammonia-cyanoborane]
output: Criterion not met

input: Check if activity at 1 µM >= 70% (inclusive). Item: C[NH+](C)[BH2-]C#N [VI, (CH3)2 NH.BH2 CN]
output: Criterion not met

input: Check if activity at 1 µM >= 70% (inclusive). Item: N#C[BH2-][n+]1ccccc1 [XV, pyridinecyanoborane]
output: Criterion not met

input: Check if activity at 1 µM >= 70% (inclusive). Item: C[N+](C)(C)[BH2-]C(=O)O [VIII, trimethylamine-carboxyborane]
output: Criterion met

input: Check if activity at 1 µM >= 70% (inclusive). Item: N#C[BH2-][NH2+]CC[NH2+][BH2-]C#N [XX, Ethylenediamine-bis(cyanoborane)]
output: Criterion met

input: Check if activity at 1 µM >= 70% (inclusive). Item: O=C(O)[BH2-][n+]1ccccc1 [XVI, Pyridine-carboxyborane]
output: Criterion met

input: Check if activity at 1 µM >= 70% (inclusive). Item: C[N+](C)(C)[BH2-]C#N [Compound V, trimethylamine-cyanoborane]
output: Criterion not met

input: Check if activity at 1 µM >= 70% (inclusive). Item: C[N+](C)([BH2-]C#N)CC[N+](C)(C)[BH2-]C#N [XI]
output: Criterion met

input: Check if activity at 1 µM >= 70% (inclusive). Item: [BH3-][NH2+]C(C)(C)C [Compound I, (CH3)3 CNH2.BH3]
output: Criterion met

input: Check if activity at 1 µM >= 70% (inclusive). Item: C[N+](C)([BH2-]C(=O)O)CC[N+](C)(C)[BH2-]C(=O)O [XII]
output: Criterion not met

input: Check if activity at 1 µM >= 70% (inclusive). Item: C[N+]1([BH2-]C#N)CCOCC1 [XIV, O(CH2 CH2)2 N(CH3).BH2 CN]
output: Criterion not met

input: Check if activity at 1 µM >= 70% (inclusive). Item: [BH3-][NH+](C)C [IV, (CH3)2 NH.BH3]
output: Criterion met
